protocol-summary: Rat pharmacokinetic test
Assay type: in vivo
settings: male, plasma, po, gavage, 20 mg/kg
The entries below come with measured half-life values attached.
readout-name: half-life (min)

[[record]]
compound = "CCOc1cc2c(cc1OC)CCN(C=O)[C@H]2CCc1c[nH]c2ccc(OC)cc12 [(S)-C8]"
reported_result = 61.8

[[record]]
compound = "CCOc1cc2c(cc1OC)CCN(C=O)[C@H]2CCc1c[nH]c2cc(C)ccc12 [(S)-C7]"
reported_result = 60


###

Test system: RAW 264.7 cells
protocol-summary: Cytotoxicity on RAW 264.7 cells (CCK-8 method)
Format: cell-based, mouse
settings: RAW 264.7, 0.5 μM
readout-name: Cell survival rate/% (%)

[[record]]
compound = "CCOc1cc2c(cc1OC)CCN(C(=O)COC)[C@H]2Cc1c[nH]c2ccccc12 [(S)-C16]"
reported_result = 123.2

[[record]]
compound = "CCOc1cc2c(cc1OC)CCN(C=O)[C@H]2Cc1c[nH]c2ccc(OC)cc12 [(S)-C18]"
reported_result = 118

[[record]]
compound = "COCC(=O)N1CCc2cc(OC)c(OC)cc2C1CCc1c[nH]c2ccccc12 (centres unmarked)"
reported_result = 116.6

[[record]]
compound = "COc1cc2c(cc1OCC1CC1)C(CCc1c[nH]c3ccccc13)N(C=O)CC2 (centres unmarked)"
reported_result = 96.9

[[record]]
compound = "CCOc1cc2c(cc1OC)CCN(C=O)C2Cc1c[nH]c2ccccc12 (centres unmarked)"
reported_result = 119.5

